Assay: PP-LFER solute descriptor determination from GC retention and partition coefficient data
Assay type: physicochemical
Conditions: final adjusted value; shared within a PFAS group
From the text: The GC columns used were, from low to high polarity, HP-5ms Ultra Inert (poly[5% phenyl/95% methyl]siloxane equivalent; Agilent Technologies, Santa Clara, CA), DB-200 (poly[35% trifluoropropyl/65% methyl]siloxane; Agilent Technologies), DB-225ms (poly[50% cyanopropylphenyl/50% methyl]siloxane equivalent; Agilent Technologies), and SolGel-WAX (polyethylene glycol; Trajan, Ringwood, Australia). Column dimensions were all 30 m × 0.25 mm i.d. with a coating thickness of 0.25 μm. […]
Measured Metric: Solute descriptor S (dipolarity/polarizability parameter)
// no unit, no text: just the number

For orientation, consider the following solved cases.
| Molecule | Readout Number |
| --- | --- |
| OCc1ccc(CCC(F)(F)C(F)(F)C(F)(F)C(F)(F)C(F)(F)C(F)(F)F)cc1 | 0.75 |
| NS(=O)(=O)C(F)(F)C(F)(F)C(F)(F)C(F)(F)C(F)(F)C(F)(F)F [PFHxSA, Perfluorohexanesulfonamide] | 0.96 |
| NS(=O)(=O)C(F)(F)C(F)(F)C(F)(F)C(F)(F)F [PFBSA, Perfluorobutanesulfonamide] | 0.96 |
| FC(OC(F)(F)C(F)(OC(F)(F)C(F)(OC(F)(F)C(F)(OC(F)(F)C(F)(F)C(F)(F)F)C(F)(F)F)C(F)(F)F)C(F)(F)F)C(F)(F)F (stereo not drawn) | -0.55 |
| CCNS(=O)(=O)C(F)(F)C(F)(F)C(F)(F)C(F)(F)C(F)(F)C(F)(F)C(F)(F)C(F)(F)F [EtFOSA, N-Ethylperfluorooctanesulfonamide] | 0.88 |

Okay, next one:
Can you look up the measured Solute descriptor S (dipolarity/polarizability parameter) of FC(F)(F)C(F)(F)C(F)(F)C(F)(F)C(F)(F)C(F)(F)C(F)(F)C(F)(F)C(F)(F)C(F)(F)I [PFDI, Perfluorodecyl iodide] for me?
0.07

---

Assay: PP-LFER solute descriptor determination from GC retention and partition coefficient data
Format: physicochemical
Details: 25 °C; updated in the iterative calculation
Text: The GC columns used were, from low to high polarity, HP-5ms Ultra Inert (poly[5% phenyl/95% methyl]siloxane equivalent; Agilent Technologies, Santa Clara, CA), DB-200 (poly[35% trifluoropropyl/65% methyl]siloxane; Agilent Technologies), DB-225ms (poly[50% cyanopropylphenyl/50% methyl]siloxane equivalent; Agilent Technologies), and SolGel-WAX (polyethylene glycol; Trajan, Ringwood, Australia). Column dimensions were all 30 m × 0.25 mm i.d. with a coating thickness of 0.25 μm. […]
Measured Metric: Solute descriptor L (logarithmic hexadecane/air partition coefficient, KHxd/air)

Here are 6 molecules together with their reported answers.
| Molecule | Result |
| --- | --- |
| CN(CCO)S(=O)(=O)C(F)(F)C(F)(F)C(F)(F)C(F)(F)F | 4.769 |
| C=CC(=O)OCCC(F)(F)C(F)(F)C(F)(F)C(F)(F)C(F)(F)C(F)(F)F [6:2 FTAC, 1H,1H,2H,2H-Perfluorooctyl acrylate] | 4.098 |
| FC(F)(F)C(F)(I)OC(F)(F)C(F)(F)C(F)(F)F (centres unmarked) [FE-E1-I] | 1.937 |
| CCNS(=O)(=O)C(F)(F)C(F)(F)C(F)(F)C(F)(F)C(F)(F)C(F)(F)F [EtFHxSA, N-Ethylperfluorohexanesulfonamide] | 4.400 |
| OCC(F)(F)C(F)(F)C(F)(F)F | 1.542 |
| FC(F)(F)C(F)(F)C(F)(F)C(F)(F)I [PFBI, Perfluorobutyl iodide] | 1.939 |

Can you look up the measured Solute descriptor L (logarithmic hexadecane/air partition coefficient, KHxd/air) of CC(O)C(F)(F)C(F)(F)C(F)(F)C(F)(F)C(F)(F)F (centres unmarked) for me?
2.296

Entry FC(F)(F)C(F)(F)C(F)(F)C(F)(F)C(F)(F)C(F)(F)C(F)(F)I [PFHpI, Perfluoroheptyl iodide] please
2.792
